Target: Epidermal growth factor receptor (Homo sapiens) (UniProt P00533);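 also: values are mean inhibition figures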
Sequence (P00533 whole entry): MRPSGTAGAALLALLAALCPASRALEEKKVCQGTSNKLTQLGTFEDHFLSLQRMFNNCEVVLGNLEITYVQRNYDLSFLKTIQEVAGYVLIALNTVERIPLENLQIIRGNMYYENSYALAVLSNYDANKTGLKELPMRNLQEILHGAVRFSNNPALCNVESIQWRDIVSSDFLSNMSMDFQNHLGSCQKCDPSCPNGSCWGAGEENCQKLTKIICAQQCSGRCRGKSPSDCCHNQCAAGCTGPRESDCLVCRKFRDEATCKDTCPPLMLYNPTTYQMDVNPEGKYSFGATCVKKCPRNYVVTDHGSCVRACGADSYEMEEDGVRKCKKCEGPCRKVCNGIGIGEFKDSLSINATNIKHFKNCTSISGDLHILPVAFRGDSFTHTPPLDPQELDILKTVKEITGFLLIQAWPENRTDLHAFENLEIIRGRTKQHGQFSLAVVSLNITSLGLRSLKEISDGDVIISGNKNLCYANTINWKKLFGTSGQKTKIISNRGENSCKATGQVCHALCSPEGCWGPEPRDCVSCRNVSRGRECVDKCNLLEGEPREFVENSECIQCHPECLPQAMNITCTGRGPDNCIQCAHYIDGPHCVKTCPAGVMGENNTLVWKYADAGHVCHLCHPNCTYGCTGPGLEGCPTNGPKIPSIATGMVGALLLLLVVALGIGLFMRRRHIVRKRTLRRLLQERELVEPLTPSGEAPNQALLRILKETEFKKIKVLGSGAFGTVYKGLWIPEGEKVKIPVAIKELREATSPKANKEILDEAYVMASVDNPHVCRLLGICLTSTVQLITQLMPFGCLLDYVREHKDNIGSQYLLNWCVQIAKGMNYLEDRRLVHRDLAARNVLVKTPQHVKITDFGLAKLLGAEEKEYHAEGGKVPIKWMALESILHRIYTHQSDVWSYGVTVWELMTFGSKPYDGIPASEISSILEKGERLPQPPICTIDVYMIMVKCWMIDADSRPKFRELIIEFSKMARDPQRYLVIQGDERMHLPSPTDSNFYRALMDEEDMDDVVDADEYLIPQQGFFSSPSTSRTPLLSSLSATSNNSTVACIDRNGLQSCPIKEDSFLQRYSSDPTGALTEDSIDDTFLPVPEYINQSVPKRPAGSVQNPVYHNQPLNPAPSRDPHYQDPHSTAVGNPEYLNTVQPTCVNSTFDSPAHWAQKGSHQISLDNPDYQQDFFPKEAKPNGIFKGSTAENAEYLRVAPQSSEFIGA
Details: at 1 µM
valueType: inhibition (%)

| compound | valueType | valueMeasured |
| --- | --- | --- |
| CCCN1CCCC(c2ccc(Nc3nc(Nc4cc(F)ccc4C(N)=O)c4cc[nH]c4n3)c(OC)c2)C1 (stereo not given) | inhibition | 38 |
| COc1cc(/C=N/Nc2ncnc3c2cnn3C(C)C)ccc1O | inhibition | 9.9 |
| COc1cccc(-n2ncc3c(N/N=C/c4ccc(S(C)(=O)=O)cc4)ncnc32)c1 | inhibition | 22.6 |
| COc1ccc(-c2nn3ncccc3c2-c2ccnc(Nc3cccc(C(F)(F)F)c3)n2)cc1 | inhibition | 19.1 |
| CN(C)CCCn1c(-c2nonc2N)nc2cnccc21 | inhibition | 10.6 |

---

Tested on: Platelet-derived growth factor receptor alpha (Homo sapiens), P16234 [V561D]
Sequence (P16234 whole entry V561D): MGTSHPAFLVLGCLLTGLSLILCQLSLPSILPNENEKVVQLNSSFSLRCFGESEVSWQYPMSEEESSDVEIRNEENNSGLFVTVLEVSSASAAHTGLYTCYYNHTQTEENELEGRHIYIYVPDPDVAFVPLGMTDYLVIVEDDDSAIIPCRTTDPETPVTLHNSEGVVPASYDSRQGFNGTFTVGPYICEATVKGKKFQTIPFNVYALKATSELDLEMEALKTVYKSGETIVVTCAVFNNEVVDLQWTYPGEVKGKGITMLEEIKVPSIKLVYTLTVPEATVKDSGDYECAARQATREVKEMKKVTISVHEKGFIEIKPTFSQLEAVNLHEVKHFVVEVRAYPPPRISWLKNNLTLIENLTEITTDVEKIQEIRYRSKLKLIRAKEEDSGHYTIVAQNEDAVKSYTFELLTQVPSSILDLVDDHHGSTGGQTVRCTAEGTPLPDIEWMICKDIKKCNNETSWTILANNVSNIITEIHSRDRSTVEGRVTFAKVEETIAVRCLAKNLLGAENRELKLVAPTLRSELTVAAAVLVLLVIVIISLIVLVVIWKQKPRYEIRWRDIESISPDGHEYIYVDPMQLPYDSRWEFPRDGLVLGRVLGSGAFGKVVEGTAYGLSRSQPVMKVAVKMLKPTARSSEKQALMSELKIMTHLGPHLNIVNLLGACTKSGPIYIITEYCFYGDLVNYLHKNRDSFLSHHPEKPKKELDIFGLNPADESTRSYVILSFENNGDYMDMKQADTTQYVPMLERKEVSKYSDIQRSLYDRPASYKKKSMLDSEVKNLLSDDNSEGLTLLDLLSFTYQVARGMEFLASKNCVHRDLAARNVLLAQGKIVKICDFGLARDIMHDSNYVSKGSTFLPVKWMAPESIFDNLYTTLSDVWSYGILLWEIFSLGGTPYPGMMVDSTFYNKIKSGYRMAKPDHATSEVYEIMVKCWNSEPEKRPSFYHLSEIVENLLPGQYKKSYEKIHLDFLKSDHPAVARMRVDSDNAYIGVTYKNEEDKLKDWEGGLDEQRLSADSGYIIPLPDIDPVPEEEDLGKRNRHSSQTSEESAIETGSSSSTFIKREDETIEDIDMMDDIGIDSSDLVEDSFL
Conditions: at 1 µM
Entries and their measured inhibition follow.
valueType: inhibition (%)

| lineNotation | unitTag | valueMeasured |
| --- | --- | --- |
| NC(=O)c1cccc(Nc2nccc(Nc3cccc(F)c3)n2)c1 | % | 46 |
| COc1cc(Nc2nccc(-c3cnn4ncccc34)n2)cc(OC)c1 | % | 75.2 |
| Cc1ccc2c(-c3ccnc(Nc4cccc(C(F)(F)F)c4)n3)c(-c3ccccc3)nn2n1 | % | 52 |
| Nc1nccc(-c2c(-c3ccc(F)cc3)ncn2CCCN2CCOCC2)n1 | % | 8.56 |
| CC(C)c1ccc2c(c1)NC(=O)/C2=N/Nc1ccc(S(N)(=O)=O)cc1 | % | 52.3 |

---

Target: Aurora kinase B (Homo sapiens);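 also: reported values are averaged percent inhibition of Aurora B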
Conditions: at 0.1 µM
Entries and their measured inhibition follow.

| compound | studyTarget | inhibition, % |
| --- | --- | --- |
| O=C(Nc1ccc(Oc2ccc3[nH]c(NC(=O)c4ccco4)nc3c2)cc1)Nc1cc(C(F)(F)F)ccc1F | Aurora kinase B (Homo sapiens) | 5.43 |
| O=C1Nc2ccc(-c3cccnc3)cc2C1=Cc1cc(Br)c(O)c(Br)c1 | Aurora kinase B (Homo sapiens) | 4.87 |
| COc1cccc(-n2nc(C)c3c(N/N=C(\C)c4ccncc4)ncnc32)c1 | Aurora kinase B (Homo sapiens) | 2.73 |
| CN(c1ccc(NC(=O)Nc2ccc(OC(F)(F)F)cc2)cc1)c1ccnc(Nc2cccc(S(N)(=O)=O)c2)n1 | Aurora kinase B (Homo sapiens) | 63.9 |
| CS(=O)(=O)Nc1cccc(-c2ccc3c(NC(=O)C4CC4)n[nH]c3c2)c1 | Aurora kinase B (Homo sapiens) | 1.84 |
| CCCN1CCCC(c2ccc(Nc3nc(Nc4cc(F)ccc4C(N)=O)c4cc[nH]c4n3)c(OC)c2)C1 (stereo not given) | Aurora kinase B (Homo sapiens) | -0.78 |
| Cc1ccc(C(=O)NC2CC2)cc1-c1ccc2[nH]ncc2c1 | Aurora kinase B (Homo sapiens) | -2.69 |
| COc1cccc(-n2ncc3c(N/N=C/c4ccc(C)cc4)ncnc32)c1 | Aurora kinase B (Homo sapiens) | 4.27 |
| COc1ccc2ncnc(Nc3ccc(OCc4ccccc4)cc3)c2c1 | Aurora kinase B (Homo sapiens) | 2.34 |
| NC(=O)c1sc(-n2cnc3ccccc32)cc1OCc1ccccc1Br | Aurora kinase B (Homo sapiens) | 4.16 |

---

Biological target: Calcium/calmodulin-dependent protein kinase type IV (Homo sapiens);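 also: each value is a mean inhibition of CAMK4, part of the GSK PKIS kinase screening panel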
Settings: at 0.1 µM

| lineNotation | unitTag | inhibition |
| --- | --- | --- |
| NS(=O)(=O)c1ccc(-c2cc3ccncc3cc2OCc2ccccc2)cc1 | % | -1.16 |
| COc1cc2ncnc(Nc3ccc(C)c(O)c3)c2cc1OC | % | -1.73 |
| Nc1nccc(-c2c(-c3ccc(F)cc3)nn3cc(C(F)(F)F)ccc23)n1 | % | -0.17 |
| [O-][S+]1CCN(Cc2ccc(-c3ccc4ncnc(Nc5ccc(OCc6ccccc6)c(Cl)c5)c4c3)o2)CC1 | % | -1.57 |
| NS(=O)(=O)c1ccc(Nc2cc(-c3cccc(O)c3)n[nH]2)cc1 | % | 0.32 |

---

Molecular target: Aurora kinase C (Homo sapiens);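 also: values are the mean inhibition of Aurora-C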
Settings: at 0.1 µM
Entries and their measured inhibition follow.
valueType: inhibition

| lineNotation | studyTarget | valueMeasured |
| --- | --- | --- |
| CN(C)CCCn1c(-c2nonc2N)nc2cnccc21 | Aurora kinase C (Homo sapiens) | 0.95% |
| NC(=O)c1sc(-n2cnc3ccccc32)cc1OCc1ccccc1Br | Aurora kinase C (Homo sapiens) | 1.83% |
| OCc1ccc(-c2nc(-c3ccccn3)c(-c3ccc4c(c3)OCO4)[nH]2)cc1 | Aurora kinase C (Homo sapiens) | 3.67% |
| NS(=O)(=O)c1cccc(-c2cc3ccncc3cc2OCc2ccccc2)c1 | Aurora kinase C (Homo sapiens) | 8.37% |
| FC(F)(F)c1ccc(-c2nn3ncccc3c2-c2ccnc(Nc3ccc4c(c3)OCCO4)n2)cc1 | Aurora kinase C (Homo sapiens) | 4.98% |
| NS(=O)(=O)c1ccc(N/N=C2\C(=O)Nc3ccc(Cl)cc32)cc1 | Aurora kinase C (Homo sapiens) | 1.97% |
| Cc1ccc2c(c1)/C(=N/Nc1ccc(S(N)(=O)=O)cc1)C(=O)N2 | Aurora kinase C (Homo sapiens) | 1.16% |
| Oc1cccc(-c2nc(-c3ccccc3)[nH]c2-c2ccncc2)c1 | Aurora kinase C (Homo sapiens) | 2.05% |
| Cc1cc(Cl)cc2c1NC(=O)C2=NNc1ccc(S(N)(=O)=O)cc1 | Aurora kinase C (Homo sapiens) | 2.52% |
| O=C1Nc2ccc(-c3cccnc3)cc2C1=Cc1cc(Br)c(O)c(Br)c1 | Aurora kinase C (Homo sapiens) | 2.6% |
| Cc1ccc2c(-c3ccnc(Nc4cccc(C(F)(F)F)c4)n3)c(-c3ccccc3)nn2n1 | Aurora kinase C (Homo sapiens) | 3.89% |
| CCOc1nccc2c1nc(-c1nonc1N)n2CC | Aurora kinase C (Homo sapiens) | 2.28% |
| NS(=O)(=O)c1ccc(-c2cc3ccncc3cc2OCc2ccccc2)cc1 | Aurora kinase C (Homo sapiens) | -0.1% |
| CN(C)C(=O)O[C@H]1CN[C@H](C#Cc2cc3ncnc(Nc4ccc(OCc5cccc(F)c5)c(Cl)c4)c3s2)C1 | Aurora kinase C (Homo sapiens) | 2.15% |
| CN(C)c1cc2c(Nc3ccc4c(cnn4Cc4ccccc4)c3)ncnc2cn1 | Aurora kinase C (Homo sapiens) | 2.76% |
| COC(=O)c1cncc(/C=C/c2c(C)cc(O)cc2C)c1 | Aurora kinase C (Homo sapiens) | 2.3% |
| COc1cc2ncnc(Nc3ccc4c(cnn4Cc4ccccc4)c3)c2cc1OC | Aurora kinase C (Homo sapiens) | 1.9% |
| CS(=O)(=O)Nc1cccc(-c2ccc3c(NC(=O)C4CC4)n[nH]c3c2)c1 | Aurora kinase C (Homo sapiens) | 1.43% |
| COc1cccc(-n2ncc3c(N/N=C/c4ccc(C)cc4)ncnc32)c1 | Aurora kinase C (Homo sapiens) | 1.92% |

---

Target: Insulin receptor (Homo sapiens);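 also: reported values are averages of replicate inhibition measurements against the insulin receptor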
Details: at 0.1 µM
Entries and their measured inhibition follow.

| lineNotation | studyTarget | inhibition, % |
| --- | --- | --- |
| Cc1ccc(O)cc1Nc1ccnc2ccc(S(C)(=O)=O)cc12 | Insulin receptor (Homo sapiens) | 6.63 |
| Cc1ccc2c(-c3ccnc(Nc4cccc(C(F)(F)F)c4)n3)c(-c3ccccc3)nn2n1 | Insulin receptor (Homo sapiens) | 8.09 |
| Cc1ccc2c(c1)/C(=N/Nc1ccc(S(N)(=O)=O)cc1)C(=O)N2 | Insulin receptor (Homo sapiens) | -0.03 |
| N#Cc1cccc(Nc2nccc(-c3cnn4ncccc34)n2)c1 | Insulin receptor (Homo sapiens) | 9.03 |
| COc1cc(Nc2nccc(-c3cnn4ncccc34)n2)cc(OC)c1 | Insulin receptor (Homo sapiens) | 12.3 |
| Cc1ccc(NC(=O)CC2CC2)cc1-c1ccc(C(=O)NCC2CC2)cc1 | Insulin receptor (Homo sapiens) | 2.71 |

---

Entries and their measured inhibition follow.
Target: Serine/threonine-protein kinase PAK 3 (Homo sapiens);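 also: reported percentage is a mean inhibition value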
Conditions: at 1 µM

| lineNotation | inhibition, % |
| --- | --- |
| O=S(=O)(CCOCc1ccc(-c2ccc3ncnc(Nc4ccc(OCc5cccc(F)c5)c(Cl)c4)c3c2)o1)c1ccccc1 | 2.12 |
| CCS(=O)(=O)c1ccc(OC)c(Nc2ncc(-c3cccc(OC)c3)o2)c1 | 2.36 |
| CN(C)CCCn1c(-c2nonc2N)nc2cnccc21 | 5.23 |
| COC(=O)c1cncc(/C=C/c2c(C)cc(O)cc2C)c1 | 4.33 |
| CN(C)c1cc2c(Nc3ccc4c(cnn4Cc4ccccc4)c3)ncnc2cn1 | 3.39 |
| CCS(=O)(=O)c1ccc(OC)c(Nc2nccc(N(C)c3ccc4c(C)n[nH]c4c3)n2)c1 | 5.09 |
| Cc1ccc(NC(=O)CC2CC2)cc1-c1ccc(C(=O)NCC2CC2)cc1 | 4.25 |
| CCn1c(-c2nonc2N)nc2c(C#CC(C)(C)O)nc(OCCNC)cc21 | 5.05 |
| Cc1nc(-c2ccccc2)n2nc(NCCCN3CCOCC3)ncc12 | 4.33 |
| Nc1nccc(-c2c(-c3ccc(F)cc3)ncn2CCCN2CCOCC2)n1 | 4.41 |
| CCn1c(-c2nonc2N)nc2ccc(F)cc21 | 6.52 |
| COc1ccc2ncnc(Nc3ccc(OCc4ccccc4)cc3)c2c1 | 2.78 |
| Cc1ccc2c(c1)/C(=N/Nc1ccc(S(N)(=O)=O)cc1)C(=O)N2 | -1.09 |
| O=C(Nc1ccc(Oc2ccc3[nH]c(NC(=O)c4ccco4)nc3c2)cc1)Nc1cc(C(F)(F)F)ccc1F | 0.34 |
| c1ccc(Nc2ncc(-c3ccccc3)o2)cc1 | 4.34 |
| c1ccc(Cc2nc3ccc(Nc4ncnc5ccccc45)cc3[nH]2)cc1 | 4.32 |
| OCc1ccc(-c2nc(-c3ccccn3)c(-c3ccc4c(c3)OCO4)[nH]2)cc1 | 5.17 |
| CS(=O)(=O)Nc1cccc(-c2ccc3c(NC(=O)C4CC4)n[nH]c3c2)c1 | 1.23 |
| O=C1Nc2ccccc2/C1=C/Nc1ccc2[nH]c(=O)[nH]c2c1 | 5.03 |
| C[C@@H](Oc1cc(-n2cnc3ccc(OCC4CCN(C)CC4)cc32)sc1C(N)=O)c1ccccc1C(F)(F)F | 0.3 |
| CN1CCN(C(=O)c2ccc(NC(=O)Nc3ccc(N(C)c4ccnc(Nc5ccc(CS(C)(=O)=O)cc5)n4)cc3)cc2)CC1 | 5.09 |
| O=C1Nc2ccc(-c3cccnc3)cc2C1=Cc1cc(Br)c(O)c(Br)c1 | 4.77 |
| N#Cc1cccc(Nc2nccc(-c3cnn4ncccc34)n2)c1 | 5.22 |
| ON=C1CCc2cc(-c3nc(C4CCNCC4)[nH]c3-c3ccncc3)ccc21 | -0.23 |
| NC(=O)c1sc(-n2cnc3ccccc32)cc1OCc1ccccc1Br | 5.89 |
| CN(C)C(=O)O[C@H]1CN[C@H](C#Cc2cc3ncnc(Nc4ccc(OCc5cccc(F)c5)c(Cl)c4)c3s2)C1 | 4.3 |
